- methodNotes: Cell Viability - LYMP2-006 (AID 978);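 note: cells exposed to compound for 24 hours; nearly all actives have a fitted effect of over 60% in size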
- experimentalSetup: LYMP2-006 lymphoblastoid cell viability, qHTS; series mostly up to 92.2 µM
Results filed as inconclusive are left out. Activity calls are given as the source filed them. Calls come from the whole dose curve; as a rule, active = well fitted cell-killing curve with a large enough effect; inconclusive = small, poorly fitted or top-dose-only effect; inactive = flat fitted curve, though single readings scatter.
Outcomes: yes (1) for active, no (0) for inactive

>>> print(df.to_string())
                                   molecule  category
0            c1ccc2sc(SSc3nc4ccccc4s3)nc2c1    no (0)
1                 N=C1N=C(N)c2cc3ccccc3cc21   yes (1)
2  C#C[C@]1(O)CC[C@H]2[C@@H]3CCc4cc(O)ccc4[C@H]3CC[C@@]21C    no (0)
3                  Nc1ccc([N+](=O)[O-])cc1O    no (0)
4                   CCCCCCCCCCCCCCCCCC(=O)O    no (0)
5                      CN1CCC[C@H]1c1cccnc1    no (0)
6  CN(C)CCC(c1ccc(Cl)cc1)c1ccccn1 (centres undefined)    no (0)
7              CN(C)c1ccc(N=NS(=O)(=O)O)cc1    no (0)
8  CN(C)c1ccc(C(=C2C=CC(=[N+](C)C)C=C2)c2ccccc2)cc1   yes (1)

The reported numbers originate from PubChem BioAssay (NCATS).
